Origin of measurements: PubChem BioAssay (NCI)

Assign growth to each entry below.
Test system: T-47D breast
protocolSummary: NCI-60 one-dose screen, 48 h (100 = growth as untreated, 0 = no growth, -100 = all killed)
reportedConditions: 10 µM unless noted
This is part of a sample that, as a whole, favours compounds with a hit. Of some 83,000 tested, about 20% had one in any assay. The source made the active and inactive calls. Rule for the calls: active = growth percent below 10; inactive = the rest.

Item "Clc1ccc(-c2cc(-c3ccccc3)nc(NCCNc3ccnc4cc(Cl)ccc34)n2)cc1" : provide growth
11.8% (inactive)

Item CCN1C(=O)N(CC)C2C1NN=c1s/c(=C3\C(=O)N(CCC(C)C)c4ccccc43)c(=O)n12 (centres undefined) : provide growth
80.2% (inactive)

Item "Cc1ccc(-c2nc(N3CCNCC3)c3oc(-c4ccc(C)cc4)nc3n2)cc1" : provide growth
37.3% (inactive)

Item "CC(C)(C)n1cc(-c2ccnc(NCCCNS(=O)(=O)c3cccc4ccccc34)c2)c(-c2cccc(F)c2)n1" : provide growth
34% (inactive)

Item "CC(C)(C)n1cc(-c2ccnc(NCCCNS(=O)(=O)c3ccc(C(F)(F)F)cc3)c2)c(-c2cccc(F)c2)n1" : provide growth
64.5% (inactive)

Item "Cc1c2cccnc2c(C)c2c1c1cc(CO)ccc1n2C" : provide growth
17% (inactive)

Item "COc1ccc(C#Cc2ccc(=O)oc2-c2cc(OC)c(OC)c(OC)c2)cc1O" : provide growth
45.2% (inactive)

Item "FC(F)(F)c1ccc(Cn2cc(CSc3nc4ccccc4s3)nn2)cc1" : provide growth
90% (inactive)

Item "COc1ccc(-c2nc(-c3cn(C)c4ncccc34)cs2)cc1" : provide growth
-6.67% [100 µM] (active)

====

System: A498 renal
protocolSummary: NCI-60 one-dose screen, 48 h
reportedConditions: 10 µM unless noted
The panel holds about 83,000 compounds, 20% with a hit somewhere; the sample as a whole holds those more often. Activity calls are given as the source filed them. Rule for the calls: active = growth percent below 10; inactive = the rest.
Result category, one only: Yes for active, No for inactive

What is the recorded call for this compound in the test? "Cc1nn(-c2ccccc2)c(N)c1N=C1NC(=O)/C(=C/c2ccc(Br)cc2)S1"
No

What is the recorded call for this compound in the test? "COc1cc(-c2nc3sccn3c2-c2ccnc(NCCNS(=O)(=O)c3ccc(Cl)cc3)n2)ccc1F"
No

What is the recorded call for this compound in the test? "CCOC(=O)c1cnc2c(N=Nc3ccc(OC)cc3)c(N)nn2c1N"
No

What is the recorded call for this compound in the test? "C=C1C(=O)O[C@H]2[C@H]1CC/C(COC(=O)/C=C\C(=O)NCc1ccc(Cn3c(=O)sn(CCCl)c3=O)cc1)=C\CC[C@@]1(C)O[C@@H]21"
No

What is the recorded call for this compound in the test? "Cc1ccc(-c2nc3nc(-c4ccccc4)nc(N4CCCN(S(C)(=O)=O)CC4)c3o2)cc1"
No

What is the recorded call for this compound in the test? "N#C/C(=C\c1cn(Cc2ccccc2)c2ccccc12)C(=O)Nc1ncc(Cc2ccccc2Cl)s1"
Yes

What is the recorded call for this compound in the test? COc1ccc(CCN2C(=O)/C(=C/c3ccc(C4Oc5ccccc5C5CC(c6ccccc6)=NN54)cc3)SC2=S)cc1 (stereo not drawn)
No

What is the recorded call for this compound in the test? "Cc1cccc[n+]1C1c2ccccc2-c2ccccc21"
No

What is the recorded call for this compound in the test? "CN1C(=O)/C(=C2\SC(=Nc3ccccc3)N(Nc3ccccc3)C2=O)c2ccccc21"
No

What is the recorded call for this compound in the test? N=c1c(S(=O)(=O)c2ccccc2)cc2c(=O)n3ccccc3nc2n1CC1CCCO1 (stereo not drawn)
No

What is the recorded call for this compound in the test? "COc1ccc(N2CCN(C(=O)c3sc4nc(C)c(Br)c(C)c4c3N)CC2)cc1"
No

What is the recorded call for this compound in the test? COc1ccc(/C=C/C(c2cc(OC)c(OC)c(OC)c2)n2cncn2)cc1 (stereo not drawn)
No

What is the recorded call for this compound in the test? "N#CSc1c[nH]c2cccc(/C=C/C(=O)/C=C(O)/C=C/c3cccc4[nH]cc(SC#N)c34)c12"
Yes

What is the recorded call for this compound in the test? "C=C1C(=O)O[C@H]2[C@H]1CC/C(COC(=O)/C=C\C(=O)NCc1ccc(Cn3c(=O)sn(CCCCC)c3=O)cc1)=C\CC[C@@]1(C)O[C@@H]21"
No

What is the recorded call for this compound in the test? "C/C=C(/C)n1cnc2c(Nc3ccccn3)nc(Cl)nc21"
No

What is the recorded call for this compound in the test? "CC/C=C\CCC/C=C1/C(=O)C=C[C@@H]1C/C=C\CCCC(=O)OC"
No

What is the recorded call for this compound in the test? "O=C(N/N=C\c1ccccc1S(=O)(=O)O)N/N=C/c1ccccc1S(=O)(=O)O"
No

What is the recorded call for this compound in the test? "COc1cccc(/C=C/C(=O)c2cccc(Nc3nc(Nc4ccccc4)nc(Nc4ccccc4)n3)c2)c1"
No

====

Tested on: TK-10 renal
protocolSummary: NCI-60 one-dose screen, 48 h
reportedConditions: 10 µM unless noted
This is part of a sample that, as a whole, favours compounds with a hit. Of some 83,000 tested, about 20% had one in any assay. The source made the active and inactive calls. Rule for the calls: active = growth percent below 10; inactive = the rest.
Result category, one only: active, inactive

What is the recorded call for this molecule in the test? "O=C1/C(=C/c2ccc(O)c(O)c2)COc2ccc(-c3ccccc3)cc21"
inactive

What is the recorded call for this molecule in the test? "Ic1ccccc1I"
inactive

What is the recorded call for this molecule in the test? "O=C1/C(=C\c2ccccn2)c2ccccc2N1c1c(Cl)cccc1Cl"
inactive

What is the recorded call for this molecule in the test? "COc1cc(OC)cc(-c2ccc(-c3ccc(C(=N)N)o3)o2)c1"
inactive

What is the recorded call for this molecule in the test? Nc1ncnc2c1N=C(c1ccc3c(c1)OCO3)CC(c1cccc(Nc3ccnc4cc(C(F)(F)F)ccc34)c1)N2 (stereo not drawn)
inactive

What is the recorded call for this molecule in the test? CC1=CCC(OC(=O)C(C)(C)CC(O)(C(C)O)C(O)C2(C)C=CC(Cc3ccc(C(C)C)cc3)(C(C)C)CC2)(C(C)C)CC1 (stereo not drawn)
inactive

What is the recorded call for this molecule in the test? "COc1cccc(/C=C/C(=O)c2cc3c(N)c(C(=O)Nc4cccc5ccccc45)sc3nc2C)c1"
inactive

What is the recorded call for this molecule in the test? "CN1CCN(CCOc2ccc(-c3cnc4c(-c5cccc(F)c5F)cnn4c3)cc2)CC1"
active

What is the recorded call for this molecule in the test? "CCOc1c(OC)cc2c(c1O)C(=O)N[C@@H]1[C@@H](O)[C@@H](O)[C@H](O)C[C@@H]21"
inactive

What is the recorded call for this molecule in the test? "Cc1ccc(NC(=O)Cn2c(Br)nc3c2c(=O)n(C)c(=O)n3C)cc1"
active

What is the recorded call for this molecule in the test? "O=C(CCl)NNc1nccc(Nc2ccc(S(=O)(=O)Nc3ccncc3)cc2)n1"
inactive

What is the recorded call for this molecule in the test? "O=C1c2ccccc2C(=O)c2c1c(C(=O)NCc1ccccc1)c1ccccn21"
inactive

What is the recorded call for this molecule in the test? "COc1ccc2c(c1)c(-c1nc(-c3c[nH]c4ncccc34)cs1)cn2CCCN1CCOCC1"
inactive

What is the recorded call for this molecule in the test? "CN1C(=O)/C(=C/c2ccc(C(=O)Nc3ncc(Cc4cccc(Cl)c4)s3)cc2)SC1=S"
inactive

What is the recorded call for this molecule in the test? "C=Cc1cnc(Nc2ccc(OC)cc2)nc1NCCCNC(=O)C1CCC1"
inactive

What is the recorded call for this molecule in the test? "CCN1CCN(CC(=O)Nc2ccc(-c3cn4c(n3)sc3cc(Oc5ccnc(C(=O)NC)c5)ccc34)cc2)CC1"
inactive

What is the recorded call for this molecule in the test? "COc1cnc2c(c1)C(=O)c1c-2n(CCCCl)c(=O)c2ccncc12"
inactive

What is the recorded call for this molecule in the test? "Cc1cccc(-c2nc(Nc3ccc4ncsc4c3)c3ccccc3n2)n1"
inactive

What is the recorded call for this molecule in the test? "COc1cc(-c2nc3c(ncc4ccc(=O)n(-c5ccccc5)c43)s2)cc(OC)c1OC"
inactive

What is the recorded call for this molecule in the test? "C#COc1cccc(Nc2ncnc3cc(NC(=O)[C@@H](C)Cl)ccc23)c1"
inactive

What is the recorded call for this molecule in the test? "O=C(Nc1ncccc1OCc1ccccc1)NC1CCCCCC1"
inactive

What is the recorded call for this molecule in the test? "CN(CCCNC(=O)Cc1ccc2ccc3cccc4ccc1c2c34)CCCNc1cc(-c2ccc3ccccc3c2)nc2ccccc12"
active

What is the recorded call for this molecule in the test? C=C1CC[C@@H]2[C@](C)(COC(C)=O)[C@H](OC(C)=O)CC[C@@]2(C)[C@@H]1CC(Nc1ccc(S(=O)(=O)NC(C)=O)cc1)C1=CCOC1=O (stereo partly drawn)
active

What is the recorded call for this molecule in the test? "[2H]C([2H])([2H])Oc1ccc(F)cc1/C=C/C(=O)/C=C(/C=C/c1cc(F)ccc1OC([2H])([2H])[2H])OB(F)F"
inactive

What is the recorded call for this molecule in the test? "CC1(C)N=C(N)N=C(N)N1c1ccc(CCCCc2ccccc2)c(Cl)c1"
inactive

What is the recorded call for this molecule in the test? "N=C(N)c1ccc(-c2ccc(-c3cc(Cl)cc(Cl)c3)s2)nc1"
inactive

What is the recorded call for this molecule in the test? "O=C(NCc1cccc(CNC(=O)Nc2nc3ccccc3[nH]2)c1)Nc1nc2ccccc2[nH]1"
active

What is the recorded call for this molecule in the test? "COc1ccc(C[n+]2c3ccccc3n3c4ccc(N)cc4ccc32)c(OC)c1OC"
inactive

What is the recorded call for this molecule in the test? "CSC(SC)=C(C#N)c1nc2ccccc2s1"
inactive

What is the recorded call for this molecule in the test? "CCCCNC(=O)c1cc([N+](=O)[O-])cc(C2CCCCC2)c1O"
inactive

What is the recorded call for this molecule in the test? "COc1cc(/C=C/C(=O)c2ccc(-n3cc(CN4CCN(c5cc6c(cc5F)c(=O)c(C(=O)O)cn6C5CC5)CC4)nn3)cc2)ccc1O"
inactive

What is the recorded call for this molecule in the test? "C=C1C(=O)O[C@H]2[C@H]1CC/C(COC(=O)/C=C\C(=O)NCc1ccc(Cn3c(=O)sn(CCCl)c3=O)cc1)=C\CC[C@@]1(C)O[C@@H]21"
inactive

What is the recorded call for this molecule in the test? CCN1C(=O)N(CC)C2C1NC(=S)N2/N=C/c1ccc(C(F)(F)F)cc1 (stereo not drawn)
inactive

What is the recorded call for this molecule in the test? "Cc1ccc2c(-c3nnc(N)s3)cc(=O)oc2c1C"
inactive

What is the recorded call for this molecule in the test? "CN(CCCNC(=O)CCOCCOCCOCCNC(=O)Cc1ccc2ccc3cccc4ccc1c2c34)CCCNc1cc(-c2ccc3ccccc3c2)nc2ccccc12"
active

What is the recorded call for this molecule in the test? "C=C1C(=O)O[C@H]2[C@H]1CC/C(Cn1cc(CCC)nn1)=C\CC[C@@]1(C)O[C@@H]21"
active

What is the recorded call for this molecule in the test? "O=c1nc(-c2ccccc2)c2cc(-c3ccc(C(F)(F)F)nc3)ccc2[nH]1"
inactive

What is the recorded call for this molecule in the test? "S=C(c1ccc2c(c1)OCO2)N1CCN(c2cccc(Cl)c2)CC1"
inactive
